I'd appreciate it if you could supply TGI values for the items below.
Tested on: UACC-62 melanoma
measurement-notes: NCI tumour cell line growth inhibition, 48 h

Cc1nc2ccc(N=NN(C)C)cc2[nH]1	> 100 µM

Provide each entry's TGI from the list below.
1. Nc1ccc(Oc2ccc(C3(c4ccc(Oc5ccc(N)c(O)c5)cc4)C4CC5C6CC7CC5C3C(C7)C6C4)cc2)cc1O
2. Cc1cccc(N=C2c3cc([N+](=O)[O-])ccc3-c3c2cc([N+](=O)[O-])cc3[N+](=O)[O-])c1

Result ::
1: 17.7 µM; 2: 20.2 µM

Could you report TGI for every entry in the following list?
1. COc1cc(-c2nc3ccccc3s2)ccc1OCc1nc2n(n1)S(=O)(=O)c1ccccc1N2C
2. O=c1[nH]c(=O)n(C2CC(O)C(CO)O2)c2nc3ccc4ccccc4c3nc12 (stereo not given)
3. Cc1cc(C)nc(SC2=C(Nc3cccc(Cl)c3)C(=O)N(Cc3ccccc3)C2=O)n1
4. COc1ccc2c(c1)Cc1c-2c(NN)nc2ccccc12
5. CCn1c(SCC(=O)NNC(=S)Nc2ccc(F)cc2)nc2ccccc2c1=O
6. O=S1(=O)OCCCOS(=O)(=O)C1Br
7. N#CC1=C(N2CCOCC2)CCC1

Result ::
1: > 100 µM; 2: > 100 µM; 3: > 170 µM; 4: > 100 µM; 5: > 100 µM; 6: > 100 µM; 7: > 100 µM
